Test system: mature cardiomyocytes (hiPSC-CMs) on AFC-ECM
measured metric: APD90 Prolongation? @10X ETPC

# example entries with known answers
> print(dat)
                                   compound                        measurement.target  observed.value
1  O=C(CCCN1CC=C(n2c(=O)[nH]c3ccccc32)CC1)c1ccc(F)cc1 [Droperidol]  mature cardiomyocytes (hiPSC-CMs) on AFC-ECM             Yes
2  Cc1nccn1CC1CCc2c(c3ccccc3n2C)C1=O (stereo not drawn) [Ondansetron]  mature cardiomyocytes (hiPSC-CMs) on AFC-ECM             Yes
3  C=C[C@H]1C[N@@]2CC[C@H]1C[C@@H]2[C@@H](O)c1ccnc2ccc(OC)cc12 [Quinidine]  mature cardiomyocytes (hiPSC-CMs) on AFC-ECM             Yes
4  CCCCCCCN(CC)CCCC(O)c1ccc(NS(C)(=O)=O)cc1 (stereo not drawn) [Ibutilide]  mature cardiomyocytes (hiPSC-CMs) on AFC-ECM             YeS
5  CC(C)(C)c1ccc(C(O)CCCN2CCC(C(O)(c3ccccc3)c3ccccc3)CC2)cc1 (stereo not drawn) [Terfenadine]  mature cardiomyocytes (hiPSC-CMs) on AFC-ECM             Yes
6  CN1CCN(C2=Nc3cc(Cl)ccc3Nc3ccccc32)CC1 [Clozapine]  mature cardiomyocytes (hiPSC-CMs) on AFC-ECM             Yes
7  COCCc1ccc(OCC(O)CNC(C)C)cc1 (stereo not drawn) [Metoprolol]  mature cardiomyocytes (hiPSC-CMs) on AFC-ECM              No

For the next question, use this compound.
Record CC/C(=C(\c1ccccc1)c1ccc(OCCN(C)C)cc1)c1ccccc1 [Tamoxifen] : what is its APD90 Prolongation? @10X ETPC with mature cardiomyocytes (hiPSC-CMs) on AFC-ECM?
No

* * *

Test system: mature cardiomyocytes (hiPSC-CMs) on AFC-ECM
measured metric: APD90 Prolongation? @10X ETPC

> print(dat)
                                   compound                measured.metric  observed.value
1  CC(C)COCC(CN(Cc1ccccc1)c1ccccc1)N1CCCC1 (stereo not drawn)  APD90 Prolongation? @10X ETPC             Yes
2  CC(C)N(CCC(C(N)=O)(c1ccccc1)c1ccccn1)C(C)C (stereo not drawn) [Disopyramide]  APD90 Prolongation? @10X ETPC             Yes
3    Cc1cccc(C)c1OCC(C)N (stereo not drawn)  APD90 Prolongation? @10X ETPC              No
4  CN1CCN(CCCCN2C(=O)CN(/N=C/c3ccc(-c4ccc(Cl)cc4)o3)C2=O)CC1 [Azimilide]  APD90 Prolongation? @10X ETPC             Yes

Record `O=c1[nH]c2ccccc2n1CCCN1CCC(n2c(=O)[nH]c3cc(Cl)ccc32)CC1` : what is its APD90 Prolongation? @10X ETPC with mature cardiomyocytes (hiPSC-CMs) on AFC-ECM?
Yes

Record O=c1[nH]c2ccccc2n1C1CCN(CCCC(c2ccc(F)cc2)c2ccc(F)cc2)CC1 [Pimozide] : what is its APD90 Prolongation? @10X ETPC with mature cardiomyocytes (hiPSC-CMs) on AFC-ECM?
No

Record `COc1ccc(CCN2CCC(Nc3nc4ccccc4n3Cc3ccc(F)cc3)CC2)cc1` : what is its APD90 Prolongation? @10X ETPC with mature cardiomyocytes (hiPSC-CMs) on AFC-ECM?
Yes

Record COc1ccccc1OCC(O)CN1CCN(CC(=O)Nc2c(C)cccc2C)CC1 (stereo not drawn) : what is its APD90 Prolongation? @10X ETPC with mature cardiomyocytes (hiPSC-CMs) on AFC-ECM?
No

Record `COc1cc2c(Nc3ccc(Br)cc3F)ncnc2cc1OCC1CCN(C)CC1` : what is its APD90 Prolongation? @10X ETPC with mature cardiomyocytes (hiPSC-CMs) on AFC-ECM?
Yes
